// hepatocyte CLint lookup, one value per entry
Assay Summary: in vitro
Run Conditions: hepatocytes
Residues, ends and D or L forms follow the SMILES beside them.

{"Compound": "C[C@H](NC(=O)c1cccc2c1N(Cc1ccc(Cl)cc1)CC2)c1ccc(C(=O)O)cc1", "Unit": "µL/min/1e6 cells", "Comparator": "=", "hepatocyte CLint": 13.2}
{"Compound": "Cc1nc(C(=O)N2CCOC3(CCN(Cc4ccc(Cl)cc4)CC3)C2)cs1", "Unit": "µL/min/1e6 cells", "Comparator": "=", "hepatocyte CLint": 47}
{"Compound": "CC(=O)N[C@@H](CCN)C(=O)N[C@H](C(=O)N[C@@H](CCN)C(=O)N[C@H]1CCNC(=O)[C@H]([C@@H](C)O)NC(=O)[C@H](CCN)NC(=O)[C@H](CCN)NC(=O)[C@H](CC(C)C)NC(=O)[C@@H](Cc2ccccc2)NC(=O)[C@H](CCN)NC1=O)[C@@H](C)O [DEACYL POLYMYXIN B] (HELM PEPTIDE1{[ac].[Dab].T.[Dab].[Dab].[Dab].[dF].L.[Dab].[Dab].T}$PEPTIDE1,PEPTIDE1,5:R3-11:R2$$$V2.0)", "Unit": "µL/min/1e6 cells", "Comparator": "<", "hepatocyte CLint": 3}
{"Compound": "COC(=O)[C@H](c1ccccc1Cl)N1CCc2sccc2C1", "Unit": "µL/min/1e6 cells", "Comparator": "=", "hepatocyte CLint": 137}
{"Compound": "CCNC(=O)c1cnc(N2CCN(C3CCN(Cc4ccc(Cl)cc4F)CC3)[C@@H](CC)C2)c(Cl)c1", "Unit": "µL/min/1e6 cells", "Comparator": "=", "hepatocyte CLint": 38}
{"Compound": "CSc1ccc2c(c1)N(CCC1CCCCN1C)c1ccccc1S2 (stereo unspecified)", "Unit": "µL/min/1e6 cells", "Comparator": "=", "hepatocyte CLint": 114}
